# Test system: KB
# test_protocol: Cytotoxicity against human KB cells after 72 hrs by neutral red staining
# Format: functional, cell-based
measured_endpoint: IC50 (µg/mL)

{"compound": "COC1=C2c3cc4c(cc3CCN3CCC[C@]23CC1O)OCO4 (some centres undefined)", "measured_endpoint": "IC50", "value_measured": 15}
{"compound": "COC1=C[C@]23CCC[N@+]2([O-])CCc2cc4c(cc2[C@@H]3[C@@H]1O)OCO4", "measured_endpoint": "IC50", "value_measured": 30}
{"compound": "COC1=C[C@]23CCC[N@@+]2([O-])CCc2cc4c(cc2[C@@H]3[C@@H]1O)OCO4", "measured_endpoint": "IC50", "value_measured": 14}
{"compound": "COC1=C[C@]23CCC[N@@+]2([O-])C[C@H](O)c2cc4c(cc2[C@@H]3[C@@H]1O)OCO4", "measured_endpoint": "IC50", "value_measured": 31}

Values compiled from ChEMBL document CHEMBL1158897.
